// reported Kd per item
# experimental_target: T1, Recombinant TNFα containing an N-terminal 13-aa ybbR tag (human, UniProt P01375 77-233, biotin at the ybbR tag in the ELISA assays)
# T1 construct: Expressed in E. coli; Same construct used unlabelled (FA) and biotinylated on NeutrAvidin (ELISA); also called tumor necrosis factor-alpha; human TNFα; not shown: N-terminal 13-aa ybbR tag
# T1 sequence (P01375 77-233): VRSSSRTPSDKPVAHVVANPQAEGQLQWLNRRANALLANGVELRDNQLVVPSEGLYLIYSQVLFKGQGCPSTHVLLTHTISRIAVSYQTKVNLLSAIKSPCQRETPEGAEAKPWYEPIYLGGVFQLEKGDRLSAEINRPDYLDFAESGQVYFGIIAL
# assay_method_text: FA, FITC-peptide + TNFα titration
Positions of bridges follow the written chain, without caps; N, C: chain ends. Non-standard residues stand in square brackets, D forms with d. Primed or numbered codes have the meaning given here. No end group written: not given here. *: point of attachment. FITC(3) = fluorescein isothiocyanate (N6-fluorescein-thiocarbamoyl on Lys); FITC = O=C1OC2(c3ccc(O)cc3Oc3cc(O)ccc32)c2ccc(NC(=S)*)cc21; FITC″ = Lys(FITC) = N6-fluorescein-thiocarbamoyl-L-lysine; trimesoyl″ = benzene-1,3,5-tricarbonyl scaffold; FITC′ = fluorescein isothiocyanate, on Lys NZ; trimesoyl = benzene-1,3,5-tricarbonyl; Phg = N[C@H](C(=O)O)c1ccccc1; Nle = CCCC[C@H](N)C(=O)O; Abu = CC[C@H](N)C(=O)O; Dap = NC[C@H](N)C(=O)O

binder	Kd
[Nle]Y[dS]KW[dH]G[dK]H[Dap]K(FITC)-NH2 (linker N-4-10 via trimesoyl″) [C1-35]	260 nM
[Nle]Y[dA]KY[dF]G[dK]H[Dap]K(FITC)-NH2 (linker N-4-10 via trimesoyl″) [C1-5]	850 nM
[Nle]Y[dS]KW[dH]G[dK]F[Dap]K(FITC)-NH2 (linker N-4-10 via trimesoyl″) [C1-50]	7500 nM
LY[dN]KY[dF]G[dK]H[Dap]K(FITC′)-NH2 (linker (positions not given here) via trimesoyl″; not fully specified (N-terminus, bridges)) [C1-16]	2700 nM
[Abu]Y[dA]KY[dF]G[dK]H[Dap]K(FITC)-NH2 (linker N-4-10 via trimesoyl″) [C1-3]	2000 nM
AY[dA]KY[dF]G[dK]H[Dap]NNNK(FITC(3))-NH2 (linker N-4-10 via trimesoyl″) [Anticachexin C1 Phg1 → Ala, NNNK(FITC)-tagged]	1000 nM
[Phg]Y[dA]KY[dF]G[dK]A[Dap]NNNK(FITC(3))-NH2 (linker N-4-10 via trimesoyl″) [Anticachexin C1 His9 → Ala, NNNK(FITC)-tagged]	4400 nM
[Nle]Y[dN]KY[dF]G[dK]H[Dap]K(FITC′)-NH2 (linker (positions not given here) via trimesoyl″; not fully specified (N-terminus, bridges)) [C1-12]	1400 nM
[Nle]Y[dS]KW[dH]L[dK]H[Dap]K(FITC)-NH2 (linker N-4-10 via trimesoyl″) [C1-47]	1700 nM
TY[dA]KY[dF]G[dK]H[Dap]K(FITC″)-NH2 (linker N-4-10 via trimesoyl) [C1-7]	7200 nM
